These measurements were taken from PubChem BioAssay (NCI).

- Test system: NCI-H460 lung
- measurementProtocol: NCI-60 one-dose screen, 48 h (100 = growth as untreated, 0 = no growth, -100 = all killed)
- reportedConditions: 10 µM unless noted
This is part of a sample that, as a whole, favours compounds with a hit. Of some 83,000 tested, about 20% had one in any assay.
Answer each item with its documented growth.
Numbers only, in %.

Cc1c(N2CN3C[C@H](C)N4CN(c5c(C)n(C)n(-c6ccccc6)c5=O)CN5C[C@@H](C)N(C2)C3C54)c(=O)n(-c2ccccc2)n1C (stereo not given in full) | 101
CC1(C)CC[C@]2(C(=O)N3CCOCC3)CC[C@]3(C)C(=CC[C@@H]4[C@@]5(C)C/C(=C/c6ccncc6)C(=O)C(C)(C)[C@@H]5CC[C@]43C)[C@@H]2C1 | -21.8
Fc1ccc(CNc2c3ccccc3nc3ccccc23)cc1 | 8.85
CCOC(=O)c1c(NC(=O)c2ccc(OC)cc2)sc2c(CN(C)C)c(O)ccc12 | 60

Req: Name the recorded growth for Cc1cc(N2CCCCC2)nc(N2CCN(CC(=O)Nc3ccc4c(ccn4Cc4ccccc4)c3)CC2)n1 .
Resp: 56.5

====

- Tested on: NCI/ADR-RES ovarian
- measurementProtocol: NCI-60 one-dose screen, 48 h (100 = growth as untreated, 0 = no growth, -100 = all killed)
- reportedConditions: 10 µM unless noted
This is part of a sample that, as a whole, favours compounds with a hit. Of some 83,000 tested, about 20% had one in any assay.
Answer each item with its documented growth.
Give bare numbers, in %.

For orientation, consider the following solved cases.
C=C(CO)[C@@H]1CC[C@]2(COC3CCCCO3)CC[C@]3(C)[C@H](CC[C@@H]4[C@@]5(C)C=C(C=O)C(=O)C(C)(C)[C@@H]5CC[C@]43C)[C@@H]12 (stereo not given in full) | -37.5
Nc1ncnc2c1c(-c1ccc(Oc3ccccc3)cc1)nn2CC1SSCC1O (stereo not given) | 77.5
Cn1cc(-c2nn3cc(-c4ccccc4)nc3s2)c2ccccc21 | 70.5
CC(=O)Nc1c(Cl)cc(Cl)c2c1Cc1cc([N+](=O)[O-])ccc1-2 | 83.5

# evaluate next
Req: Name the recorded growth for COc1cc(C#Cc2ccc(=O)oc2C#Cc2ccccc2)cc(OC)c1OC .
Resp: 89.7

====

- Tested on: ACHN renal
- measurementProtocol: NCI-60 one-dose screen, 48 h
- reportedConditions: 10 µM unless noted
This is part of a sample that, as a whole, favours compounds with a hit. Of some 83,000 tested, about 20% had one in any assay. Calls of active or inactive are those of the source. How the source made its calls: active means growth percent below 10; inactive means the rest.
Your answer must be one of the following: active, inactive

O=C1Nc2ccccc2C2c3cccn3-c3ccccc3N12 (centres undefined) | inactive

Req: Record request — test call for Cc1cc2nc3c4ccccc4n(CCN(C)C)c3nc2cc1C
Resp: active

Req: Record request — test call for c1ccc(CNc2ccc3nc(CCC4CCCCC4)[nH]c3c2)cc1
Resp: inactive

Req: Record request — test call for COc1ccccc1-n1c(-c2cc(O)ccc2C)cn2c3c(=O)[nH]c(=O)n(C)c3nc12
Resp: inactive

====

- Tested on: RXF 393 renal
- measurementProtocol: NCI-60 one-dose screen, 48 h
- reportedConditions: 10 µM unless noted
This is part of a sample that, as a whole, favours compounds with a hit. Of some 83,000 tested, about 20% had one in any assay. Calls of active or inactive are those of the source. The calls were made as follows: active = growth percent below 10; inactive = the rest.
Your answer must be one of the following: 1 (active), -1 (inactive)

// known answers, use as guide
C#CCOc1cccc(-c2ncc3cc(NC(=O)CCl)ccc3n2)c1 | 1
COc1ccc(Cc2nnc(Nc3nc4ccccc4s3)s2)cc1 | -1
Cn1c(/C=C/[N+](=O)[O-])cc2ccccc21 | 1

Req: Record request — test call for C=C1C(=O)O[C@H]2[C@H]1CC/C(COC(=O)NCCCCCCCCNC(=O)OC/C1=C/CC[C@@]3(C)O[C@H]3[C@H]3OC(=O)C(=C)[C@@H]3CC1)=C\CC[C@@]1(C)O[C@@H]21
Resp: 1

Req: Record request — test call for O=C(Nc1ccccc1)c1sc(-c2ccccc2)cc1O
Resp: -1

Req: Record request — test call for COc1cccc(Nc2ccnc3[nH]c4ccc([N+](=O)[O-])cc4c23)c1
Resp: -1

====

- System: NCI-H322M lung
- measurementProtocol: NCI-60 one-dose screen, 48 h (100 = growth as untreated, 0 = no growth, -100 = all killed)
- reportedConditions: 10 µM unless noted
- Description: Growth inhibition of the NCI-H322M human Non-Small Cell Lung tumor cell line is measured as a screen for anti-cancer activity. Cells are grown in 96 well plates and exposed to the test compound for 48 hours. Compounds are tested at a single concentration, which is 10^-5 M for most compounds. The reported endpoint is percent growth (GI% or GIPRCNT), where numbers from 0 - 100% represent growth inhibition, and numbers from -100% - 0 represent cell death. […]
The panel holds about 83,000 compounds, 20% with a hit somewhere; the sample as a whole holds those more often.
Answer each item with its documented growth.
Numbers only, in %.

For orientation, consider the following solved cases.
CCC/C(=N\NC(N)=O)C(OC)OC | 109
C=CC1(C)C(O[Si](C)(C)C(C)(C)C)CC2C3OC(=O)NC31c1cccc3c1[C@H](C(=O)N3C)C2(C)C (some centres undefined) | 78.3
O=C(Nc1ccc(F)cc1)Nc1ccccc1CNc1nc(Nc2ccc(OCCN3CCCC3)cc2)ncc1Cl | 89.1
CC1=NN(c2ccc(Cl)cc2)CC1(C)N=O (centres undefined) | 99.9
COc1ccc(OC)c(-c2cn3nc(-c4c[nH]c5ccc(Br)cc45)sc3n2)c1 | 50.6

Hello, I would appreciate it if you could give growth for each entry below.
1. CCOC(=O)c1ccc2c(c1)c1c(C)c3ccncc3c(C)c1n2C
2. O=C1CC2C=CCN2C=C1NC(=O)C1CCCCC1 (centres undefined)
3. CCCCCCC(CCCC)COC(=O)c1ccc(Cl)cc1 (centres undefined)
4. CC(C)(C)C(=O)/C=C/c1ccc([N+](=O)[O-])cc1
5. CC(C)c1ccc(-n2c(=S)[nH]c3sc4c(c3c2=O)CCC(=O)C4)cc1
6. CCN(CC)CCOc1ccc(Nc2ncc3cc(-c4ccc(O)cc4)c(=O)n(C)c3n2)cc1

Resp:
[18.1, 100, 111, 103, 78, 47.7]

Hello, I would appreciate it if you could give growth for each entry below.
1. Nc1c(C(=O)Nc2cccc3ncccc23)sc2nc3c(cc12)C(=O)CCC3
2. CN1CCN(Cc2ccc(NC(=O)c3cncc(C#Cc4cncc5[nH]ncc45)c3)cc2C(F)(F)F)CC1
3. COC1=CC(c2ccc[nH]2)=N/C1=C\c1[nH]c(C)c(CC(=O)OCc2ccccc2)c1C

Resp:
[62.2, 13.7, 25.9]

====

- Tested on: SN12C renal
- measurementProtocol: NCI-60 one-dose screen, 48 h (100 = growth as untreated, 0 = no growth, -100 = all killed)
- reportedConditions: 10 µM unless noted
Compounds without any hit were thinned out: in the full panel of roughly 83,000, 20% have a hit.
just bin them by growth: lower: < 50%; middle: ≥ 50% and < 90%; upper: ≥ 90%

CC/C=C\C/C=C/C=C1/C(=O)C=C[C@@H]1C/C=C\CCCC(=O)OC | lower
O=C1/C(=C/c2ccccc2[N+](=O)[O-])COc2ccc(O)cc21 | lower
CCOC(=O)c1c(NC(=O)c2ccc(C(C)(C)C)cc2)sc2cc(O)ccc12 | upper

Next up:
Req: // bin(item) where item = O=C(CCCCl)NNc1nccc(Nc2ccc(S(=O)(=O)Nc3ccncc3)cc2)n1
Resp: upper

====

- Test system: MALME-3M melanoma
- measurementProtocol: NCI-60 one-dose screen, 48 h (100 = growth as untreated, 0 = no growth, -100 = all killed)
- reportedConditions: 10 µM unless noted
This is part of a sample that, as a whole, favours compounds with a hit. Of some 83,000 tested, about 20% had one in any assay.
just bin them by growth: category 1: < 70%; category 2: ≥ 70% and < 90%; category 3: ≥ 90%

Cc1c2cnccc2c(C)c2c1c1cc(C3OCCCO3)ccc1n2C | category 1
CC1CN=C(c2cccc(-c3ccc(-c4ccccc4)o3)c2)N1 (configuration not stated) | category 1
O=C(c1ccc(F)c(Cl)c1)N1c2ccccc2Sc2ccccc21 | category 1
O=S(=O)(c1ccccc1)N1CCCN(c2nc(-c3ccccc3)nc3nc(-c4ccccc4)oc23)CC1 | category 3
COc1cc2c(/C=C3\C(=O)Nc4ccccc43)c(C(=O)O)[nH]c2cc1C | category 3
COc1cc(OC)cc(C2C(C#N)=C(N)Oc3c2ccc2ccc(O)cc32)c1 (configuration not stated) | category 1
Cc1[nH]c(C(=O)Nc2ccc(C(N)=O)cc2NC(C)C)c(Cl)c1Cl | category 3
CCOC(=O)C1CCN(c2ccc(N3C[C@@H](CNCc4ccc(C(=N)N)cc4)OC3=O)cc2)CC1 | category 2
O=C1/C(=C/c2ccc(Br)cc2)COc2ccc(O)c(O)c21 | category 1
CCNC(=O)Oc1ccc(/C(=C(/C)Cc2ccc(OC)cc2)c2ccc(OCCN3CCCCCC3)cc2)cc1 | category 3

Req: // bin(item) where item = O=C1CCCc2nc3sc4c(=O)n(-c5ccccc5Cl)nnc4c3cc21
Resp: category 3

Req: // bin(item) where item = COc1ccc(C2=Nc3c/c(=C\c4c(O)[nH]c5cc(Cl)ccc45)ccc3=N2)cc1
Resp: category 2

Req: // bin(item) where item = COc1cc(C2=NN(C(C)=O)C(c3ccc(N(C)C)cc3)C2)cc(OC)c1OC (configuration not stated)
Resp: category 2
